- experimentalSystem: D2 receptor
- measurementNotes: Binding: displacement of [^3 H] YM-09151-2 (D2 site)
- testSettings: Ligand [^3 H] YM09151-2
Where a name gives a salt, the structure may show the parent alone.
reportedEndpoint: Ki (nM)

# molecule, recordedNumber
data = [
    ("COc1c(C(=O)N[C@@H]2C[C@H]3CC[C@@H](C2)N3Cc2ccccc2)cc(Br)c2ccccc12", 0.776),
    ("CCOc1c(C(=O)N[C@@H]2C[C@H]3CC[C@@H](C2)N3Cc2ccccc2)cc(Br)c2ccccc12 [Example 13, hydrochloride]", 0.944),
    ("COc1c(C(=O)NC2CCN(Cc3ccccc3)CC2)ccc2ccccc12", 3.32),
    ("COc1cccc(C(=O)N[C@@H]2C[C@H]3CC[C@@H](C2)N3Cc2ccccc2)c1OC [Tropapride]", 0.106),
    ("CCN1CCCC1CNC(=O)c1cc(S(N)(=O)=O)ccc1OC (stereo not shown) [Sulpiride]", 4.63),
    ("COc1c(C(=O)N[C@@H]2C[C@H]3CC[C@@H](C2)N3Cc2ccccc2)cc(Cl)c2ccccc12 [Example 5, hydrochloride]", 0.408),
    ("COc1c(C(=O)N[C@@H]2C[C@H]3CC[C@@H](C2)N3Cc2ccccc2)ccc2ccccc12", 0.143),
]
